studyTarget: T1, Human CXCR2 (Homo sapiens, UniProt P25025)
T1 sequence (P25025 1-360): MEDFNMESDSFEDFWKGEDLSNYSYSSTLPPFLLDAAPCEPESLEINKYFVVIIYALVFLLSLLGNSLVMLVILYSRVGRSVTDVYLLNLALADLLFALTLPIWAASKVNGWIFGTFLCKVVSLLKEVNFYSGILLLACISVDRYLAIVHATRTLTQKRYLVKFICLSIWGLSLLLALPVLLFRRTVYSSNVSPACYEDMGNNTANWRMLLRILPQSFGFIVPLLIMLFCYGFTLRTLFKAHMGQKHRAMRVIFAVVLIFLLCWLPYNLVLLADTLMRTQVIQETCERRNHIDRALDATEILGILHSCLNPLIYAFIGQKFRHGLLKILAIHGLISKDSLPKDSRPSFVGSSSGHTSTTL
experimentDescription: cELISA of hybridoma supernatants on cells transfected with human CXCR2
Assay type: binding
Design: host or cells: Expi293F cells, vector pTT5
conditionSummary: hybridoma supernatant; fluorescence units relative to positive control (100%)
assayReadout: Human CXCR2 % Positive (%)
The reply should be a number in %, with the unit left off.

Answered cases to consult:
>>> numericresult("BKO-8C4: VH SEQ ID NO: 39, VL SEQ ID NO: 40 (antibody, V domains shown, BKO_8C4_VH; BKO_8C4_VL) VH: QLQLQESGPGLVKPSETLSLTCTVSGGSIRTSSYYWGWIRQPPGKGLEYIGSIYYSGTTYYNPSLKSRVTMSVDTSKNQFSLKLSSVTAADTAVYYCARHGRVREVPPFDYWGQGTLVTVSS VL: SSELTQDPAVSVALGQTVRITCQGDSLRYYYASWYQQKPGQAPVLVIYDENSRPSGIPDRFSGSSSGNTASLRITGTQAEDEADYYCNSRDTSGNHWAFGGGTKLTVL")
124
>>> numericresult("BKO-5E8: VH SEQ ID NO: 21, VL SEQ ID NO: 22 (antibody, V domains shown, BKO_5E8_H5_C05_VH; BKO_5E8_L3_C03_VL) VH: EVQLLESGGGLVQPGGSLRLSCAASGFTFSSYAMSWVRQAPGRGLEWVSAIRGSGAGTYYADSMKGRFTISRDNSKDTLYLLMNSLRAEDTAVYYCSKLEAVSGTGKYFQHWGQGTLVTVSS VL: SYELTQPPSVSVSPGQTANITCSGDTLGDKFACWYQQKPGQSPVLVIYQDTKRPSGIPERFSGSKSGITATLTISGTQAMDEADFYCQAWNSRGVVFGGGTRLTVL")
109

Query string: Quick one: Human CXCR2 % Positive for BKO-4F10: VH SEQ ID NO: 19, VL SEQ ID NO: 20 (antibody, V domains shown, BKO_4F10_VH; BKO_4F10_VL) VH: QVQLVQSGAEVKKPGASVKVSCKASGYTFTGYYIHWVRQAPGQGLEWMGRFNPNNGGTNYAQRFQGRVTMTRDTSISTAYMELSRLRSDDTAVYYCARGPTIRLWFDNWFDSWGQGTLVTVSS VL: QSALTQPASVSGSPGQSITISCTGTSSDVGGYNYVSWYQQHPGKAPKLMIYDVSNRPSGISNRFSGSKSGNTASLTISGLQAEDEADYYCSSYTSSSTWVFGGGTKLTVL ?
Result string: 118

Query string: For BKO-1A1: VH SEQ ID NO: 1, VL SEQ ID NO: 2 (antibody, V domains shown, BKO_1A1_VH; BKO_1A1_VL) VH: QLQLQESGPGLVKPSETLSLTCTVSGGSIRTSSYYWGWIRQPPGKGLEYIGSIYYSGTTYYNPSLKSRVTMSVDTSKNQFSLKMSSVTAADSAVYYCARHGRVREVPPFDYWGQGTLVTVSS VL: SSELTQDPAVSVALGQTVRITCQGDSLRYYYASWYQQKPGQAPVLVIYDENSRPSGIPDRFSGSSSGNTASLSITGTQAEDEADYYCNSRDTSGNHWAFGGGTKLTVL , what is its reported Human CXCR2 % Positive?
Result string: 38
